# Target: human GcgR (Homo sapiens, UniProt P47871)
# Sequence (P47871 26-477): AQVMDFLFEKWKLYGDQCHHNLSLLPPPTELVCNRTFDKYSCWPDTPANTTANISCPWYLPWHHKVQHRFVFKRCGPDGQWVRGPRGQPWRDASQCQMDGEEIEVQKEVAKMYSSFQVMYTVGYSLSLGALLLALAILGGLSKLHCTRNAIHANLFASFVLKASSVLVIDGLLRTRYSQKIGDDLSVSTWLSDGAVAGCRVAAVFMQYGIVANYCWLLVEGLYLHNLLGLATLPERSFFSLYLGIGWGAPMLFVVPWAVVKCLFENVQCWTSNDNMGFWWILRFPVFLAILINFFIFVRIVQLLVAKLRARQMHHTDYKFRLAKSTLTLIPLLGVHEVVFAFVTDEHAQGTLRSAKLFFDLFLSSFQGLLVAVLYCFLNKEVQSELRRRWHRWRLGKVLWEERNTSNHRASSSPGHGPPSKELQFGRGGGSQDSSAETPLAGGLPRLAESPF
# Test Details: Functional cAMP activity in the presence of 1% HSA
# Format: cell-based
# Cond: read-out: cAMP Rel EC50, hGcgR
Starred links: 1 amine or outer side, 2 acyl side, 3 side chain; linkers in the order of their positions; H or OH if unused. Non-standard residues stand in square brackets, D forms with d. Groups on a side chain read outwards from the residue. No end group written: not given here. *: point of attachment. C20 diacid = O=C(O)CCCCCCCCCCCCCCCCCCC(=O)*; C18 diacid = O=C(O)CCCCCCCCCCCCCCCCC(=O)*; αMePhe(2-F) = C[C@](N)(Cc1ccccc1F)C(=O)O; γGlu = O=C(O)[C@H](CCC(=O)[*:2])N[*:1]; αMe4Pal = C[C@](N)(Cc1ccncc1)C(=O)O; αMeY = C[C@](N)(Cc1ccc(O)cc1)C(=O)O; 4Pal = N[C@@H](Cc1ccncc1)C(=O)O; αMeL = CC(C)C[C@](C)(N)C(=O)O; Orn = NCCC[C@H](N)C(=O)O; AEEA = NCCOCCOCC(=O)O; Aib = CC(C)(N)C(=O)O
# maps each entry to its EC50
Please format your answer as a value with the unit trailing.

H-Y[Aib]QGT[αMePhe(2-F)]TSD[4Pal]SI[αMeL]LD[Orn]K([AEEA-γGlu-C18 diacid])AQ[αMe4Pal][Orn]FI[dE][αMeY]LIEGGPSSGDPPPEGTE-NH2 [Example 731]	291 nM

Exercise: Which EC50 is listed for H-Y[Aib]QGT[αMePhe(2-F)]TSDYSILLDKIAAK([AEEA-γGlu-C20 diacid])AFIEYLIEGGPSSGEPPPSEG-NH2 [Example 296] ?
Key: 517 nM

Exercise: Which EC50 is listed for Y[Aib]QGT[αMePhe(2-F)]TSD[4Pal]SI[αMeL]LD[Orn]K([AEEA-γGlu-C18 diacid])AQ[αMe4Pal][Orn]FI[dE][αMeY]LIEGGPSSGEPPPEGTE-NH2 [Example 679] ?
Key: 188 nM

---

# Test Details: in vivo
# Set-up: species or system cynomolgus monkeys
# Cond: both sexes, cynomolgus monkey, po, 300 mg
Starred links: 1 amine or outer side, 2 acyl side, 3 side chain; linkers in the order of their positions; H or OH if unused. Non-standard residues stand in square brackets, D forms with d. Groups on a side chain read outwards from the residue. *: point of attachment. C18 diacid = O=C(O)CCCCCCCCCCCCCCCCC(=O)*; αMePhe(2-F) = C[C@](N)(Cc1ccccc1F)C(=O)O; γGlu = O=C(O)[C@H](CCC(=O)[*:2])N[*:1]; αMe4Pal = C[C@](N)(Cc1ccncc1)C(=O)O; αMeY = C[C@](N)(Cc1ccc(O)cc1)C(=O)O; 4Pal = N[C@@H](Cc1ccncc1)C(=O)O; αMeL = CC(C)C[C@](C)(N)C(=O)O; αMeS = C[C@](N)(CO)C(=O)O; Orn = NCCC[C@H](N)C(=O)O; AEEA = NCCOCCOCC(=O)O; Aib = CC(C)(N)C(=O)O
# maps each entry to its CL/F

H-Y[Aib]QGT[αMePhe(2-F)]TSD[4Pal][αMeS]ILLD[Orn]K([γGlu-γGlu-C18 diacid])AQ[Aib][Orn]FI[dE]YLIEGGPSSGEPPPSGTGE-NH2 [Example 548]	2.7 mL/min/kg
H-Y[Aib]QGTFTSD[4Pal]SQ[αMeL]LD[Orn]K([γGlu-γGlu-C18 diacid])AQ[αMe4Pal]AFIE[αMeY]LIEGGPSSGEPPPSGSEE-NH2 [Example 1027]	2.77 mL/min/kg
H-Y[Aib]QGT[αMePhe(2-F)]TSD[4Pal][αMeS]I[αMeL]LD[Orn]K([AEEA-γGlu-C18 diacid])AQ[αMe4Pal]EFI[dE][αMeY]LVEGGPSSGAPPPSGS-NH2 [Example 694]	0.873 mL/min/kg
H-Y[Aib]QGT[αMePhe(2-F)]TSD[4Pal][αMeS]I[αMeL]LD[Orn]K([AEEA-γGlu-C18 diacid])AQ[αMe4Pal]EFI[dE][αMeY]LIEGGPSSGAPPPSGGGE-NH2 [Example 741]	2.28 mL/min/kg
H-Y[Aib]QGTFTSD[4Pal]SQ[αMeL]LDKK([γGlu-γGlu-C18 diacid])AQ[αMe4Pal]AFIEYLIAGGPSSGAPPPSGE-NH2 [Example 883]	11.1 mL/min/kg

Exercise: Which CL/F is listed for H-Y[Aib]QGT[αMePhe(2-F)]TSD[4Pal][αMeS]I[αMeL]LD[Orn]K([AEEA-γGlu-C18 diacid])AQ[αMe4Pal]EFI[dE][αMeY]LIEGGPSSGAPPPSGSE-NH2 [Example 712] ?
Key: 1.85 mL/min/kg

Exercise: Which CL/F is listed for H-Y[Aib]QGT[αMePhe(2-F)]TSD[4Pal]SI[αMeL]LD[Orn]K([γGlu-γGlu-C18 diacid])AQ[αMe4Pal][Orn]FI[dE][αMeY]LIEGGPSSGEPPPETE-NH2 [Example 686] ?
Key: 2.93 mL/min/kg

Exercise: Which CL/F is listed for H-Y[Aib]QGT[αMePhe(2-F)]TSD[4Pal]SILLDKK([γGlu-γGlu-C18 diacid])AQ[Aib]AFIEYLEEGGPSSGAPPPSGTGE-NH2 [Example 510] ?
Key: 5.17 mL/min/kg
